Target: BRD4 (Homo sapiens)
Construct: Mean 488 intensity of BRD4 quantitated in nuclear region; endogenous in cells; host or cells: EoL-1 eosinophilic leukemia cells
Experiment: BRD4 degradation assay in EOL1 cells (immunofluorescence imaging)
Assay type: cell-based
Settings: EoL-1 eosinophilic leukemia cells, 4 hours treatment, nuclear BRD4 immunofluorescence
experimentalReadout: DC50

Requested read-out DC50, target or system BRD4 (Homo sapiens), entry Cc1sc2c(c1C)C(c1ccc(Cl)cc1)=N[C@@H](CC(=O)N(C)C[C@H]1NC(=O)CNC(=O)[C@@H](Cc3ccc(-c4ccccc4)cc3)NC(=O)[C@@H]3C[C@@H](O)CN3C(=O)[C@H](C(C)(C)C)n3cc(nn3)COCCN(C)C1=O)c1nnc(C)n1-2 > 20 µM

Proceed to the following item.
Requested read-out DC50, target or system BRD4 (Homo sapiens), entry Cc1sc2c(c1C)C(c1ccc(Cl)cc1)=N[C@@H](CC(=O)NC[C@H]1NC(=O)CNC(=O)[C@@H](Cc3ccc(-c4ccccc4)cc3)NC(=O)[C@@H]3C[C@@H](O)CN3C(=O)[C@H](C(C)(C)C)n3cc(nn3)COCCNC1=O)c1nnc(C)n1-2 [Compound 48] < 0.05 µM
